src = patent US6593319B1

tested on: S. aureus Leo id. CJ232; test: MIC, agar diffusion method (European Pharmacopoeia 3rd Ed.); format: cell-based; conditions: S. aureus Leo id. CJ232, MRSA
RECORDED_METRIC: MIC values (concentrations in μg/ml required for 90% inhibition)

COMPOUND	RESULT
COCO[C@H]1C[C@@]2(C)[C@@H](C[C@@H](O)[C@H]3[C@@]4(C)CC[C@@H](O)[C@@H](C)[C@@H]4CC[C@@]32C)[C@H]1[C@H](CCC=C(C)C)C(=O)O	>64 µg/mL
CC(=O)OC1CC2(C)C(CC(O)C3C4(C)CCC(O)C(C)C4CCC32C)C1C(CCC=C(C)C)C(=O)O [Compound 101, 17(S),20(S)-Dihydrofusidic Acid]	0.003 µg/mL
CCO[C@H]1C[C@@]2(C)[C@@H](C[C@@H](O)[C@H]3[C@@]4(C)CC[C@@H](O)[C@@H](C)[C@@H]4CC[C@@]32C)[C@H]1[C@H](CCC=C(C)C)C(=O)O	0.005 µg/mL
CC(=O)O[C@H]1C[C@@]2(C)[C@@H](C[C@@H](O)[C@H]3[C@@]4(C)CC[C@@H](O)[C@@H](C)[C@@H]4CC[C@@]32C)[C@H]1[C@H](CCCC(C)C)C(=O)O [Compound 102, 17(S),20(S),24,25-Tetrahydrofusidic Acid]	0.12 µg/mL
CC(C)=CCCC(C(=O)O)C1C(OC(=O)C2CCCCC2)CC2(C)C1CC(O)C1C3(C)CCC(O)C(C)C3CCC12C (stereo not drawn)	16 µg/mL
CCC(=O)OC1CC2(C)C(CC(O)C3C4(C)CCC(O)C(C)C4CCC32C)C1C(CCC=C(C)C)C(=O)O (stereo not drawn)	0.24 µg/mL

---

system: S. aureus ATCC6538P; test: MIC, agar diffusion method (European Pharmacopoeia 3rd Ed.); assay type: cell-based
RECORDED_METRIC: MIC values (concentrations in μg/ml required for 90% inhibition) (µg/mL)

MOLECULE	QUANTITATIVE_READOUT
CC(=O)OC1CC2(C)C(CC(O)C3C4(C)CCC(O)C(C)C4CCC32C)C1C(CCC=C(C)C)C(=O)O [Compound 101, 17(S),20(S)-Dihydrofusidic Acid]	0.002
CC(C)=CCCC(C(=O)O)C1C(OC(=O)C2CCCCC2)CC2(C)C1CC(O)C1C3(C)CCC(O)C(C)C3CCC12C (stereo not drawn) [Compound 113]	16
CCO[C@H]1C[C@@]2(C)[C@@H](C[C@@H](O)[C@H]3[C@@]4(C)CC[C@@H](O)[C@@H](C)[C@@H]4CC[C@@]32C)[C@H]1[C@H](CCC=C(C)C)C(=O)O [Compound 123]	0.02
CCC(=O)OC1CC2(C)C(CC(O)C3C4(C)CCC(O)C(C)C4CCC32C)C1C(CCC=C(C)C)C(=O)O (stereo not drawn) [Compound 105]	0.22
CC(=O)O[C@H]1C[C@@]2(C)[C@@H](C[C@@H](O)[C@H]3[C@@]4(C)CC[C@@H](O)[C@@H](C)[C@@H]4CC[C@@]32C)[C@H]1[C@H](CCCC(C)C)C(=O)O [Compound 102, 17(S),20(S),24,25-Tetrahydrofusidic Acid]	0.016
COCO[C@H]1C[C@@]2(C)[C@@H](C[C@@H](O)[C@H]3[C@@]4(C)CC[C@@H](O)[C@@H](C)[C@@H]4CC[C@@]32C)[C@H]1[C@H](CCC=C(C)C)C(=O)O [Compound 128]	0.26
